Readings of composite z-score for the listed compounds
# Tested on: Lefty1
# procedure text: Lefty1 binders on small-molecule microarrays, primary screen, biochemical, small-molecule microarray, 635/667 nm fluorescence (AID 1139)
# measurement context: small-molecule microarray binding, fluorescence 635/667; higher = more signal
The answer should be written as a number, with no unit following it.

Example results:
Noted for COC(=O)C1=CC(c2ccc(CO)cc2)=CC(c2cccs2)N(C)C=C1C(=O)OC (stereo not given) : its composite z-score reads -0.116

Noted for C=CCN1C(=O)[C@@]2(O[C@@H](CCO)[C@H]([Si](C)(C)c3ccc(OC)cc3)[C@H]2C)c2cc(N(C=O)c3ccccc3)ccc21 : its composite z-score reads 0.124

Noted for CC(C)N1CC=CC23O[C@@H]4/C=C\CCCOC(=O)C4[C@H]2C(=O)N(CCCO)[C@@H]3C1=O (stereo not given in full) : its composite z-score reads -1.42

Noted for C[C@@H](OCc1ccccc1)C1NC(=O)[C@@]23C(=O)N[C@@H](Cc4ccccc4)C2[C@H](C)[C@@]2(C)O[C@H]2C3/C=C/C/C=C\CNC(=O)[C@@H]2CCCN2C1=O (stereo not given in full) : its composite z-score reads 0.0078

Noted for O=C(O)[C@H]1C[C@H]2C(=O)NCC(=O)N2[C@H]1c1cccc(OCCO)c1 : its composite z-score reads -0.13

Noted for CC(C)N1C(=O)c2ccccc2[C@@H](C(=O)NCc2ccccc2)[C@@H]1c1ccc(CO)cc1 : its composite z-score reads -1.28

Noted for CCN(CC)c1ccc(N2CC=CC34O[C@@H]5C=CCOC(=O)[C@@H]5[C@H]3C(=O)N(C(C)CO)[C@@H]4C2=O)cc1 (stereo not given in full) : its composite z-score reads -1.65

Noted for C=CCNC(=O)[C@@H]1[C@H]2C(=O)O[C@H](c3ccccc3)[C@H](c3ccccc3)N2[C@H](c2ccc(O)cc2)[C@@]12C(=O)Nc1ccccc12 : its composite z-score reads 0.52

More entries:
Noted for C#CCOc1ccc(C[C@H]2C(=O)O[C@H](Cc3ccccc3)[C@H](/C=C/C3CC3)N2CC#C)cc1 : its composite z-score reads -0.433

Noted for COC(=O)C1=CC(c2ccc(CO)cc2)=CC(C2CC2)N(C)C=C1C(=O)OC (stereo not given) : its composite z-score reads -0.615

---

# procedure text: inhibitors of hydroxyurea-induced Chk1 phosphorylation, primary screen, imaging, HeLa, phospho-Chk1 antibody, percent positive cells (AID 1186)
# measurement context: hydroxyurea-induced phospho-Chk1 immunofluorescence imaging, higher = more signal
Mark f for z-score values under -0.1, and t for everything at or above.

Is reported z-score greater than or equal to -0.1 here: C=CCC(OC(C)=O)[C@@H]1[C@@H](N(Cc2cccc3ccccc23)C(=O)Cc2ccc(OC)cc2)c2cc(OCCCO)ccc2N1C(=O)Cc1ccc(OC)cc1 (stereo partly specified)
t

Is reported z-score greater than or equal to -0.1 here: CCOC(=O)C[C@H]1[C@H](OC(=O)c2ccc(-c3ccccc3)cc2)[C@@H](NC(=O)c2ccccc2)c2cc(OCCCO)ccc2N1C(=O)c1ccccc1
f

Is reported z-score greater than or equal to -0.1 here: O=C1O[C@H](c2ccccc2)[C@H](c2ccccc2)N2[C@H]1[C@@H](C(=O)Nc1nc3ccccc3s1)[C@]1(C(=O)Nc3ccc(C#CCCO)cc31)[C@H]2c1ccccc1OCCO
t

More entries:
Is reported z-score greater than or equal to -0.1 here: O=C(O)[C@H]1C[C@H]2C(=O)N[C@@H](Cc3ccccc3)C(=O)N2[C@H]1c1ccc(O)cc1
f

Is reported z-score greater than or equal to -0.1 here: C=CCN1C(=O)[C@@]2(O[C@@H](CCn3cc(CCO)nn3)[C@H]([Si](C)(C)c3ccc(OC)cc3)[C@H]2C)c2cc(N3C(=O)c4cccc5cccc3c45)ccc21
f

Is reported z-score greater than or equal to -0.1 here: COCCOC(=O)N1C(=O)[C@@]2(c3cc(C#CCCO)ccc31)[C@H](c1ccccc1OCCO)N1[C@H](c3ccccc3)[C@H](c3ccccc3)OC(=O)[C@H]1[C@@H]2C(=O)NC[C@H](O)c1ccccc1
f
